Target: human P2X7 receptor (Homo sapiens, UniProt Q99572, R270H/Y155H)
Assay: Evaluation of human P2X7 receptor inhibitory activity (Yo-Pro uptake, BzATP stimulation, FLIPR TETRA)
Type: cell-based
Settings: 1321N1 cells stably expressing human P2X7 receptor; BzATP stimulation, Yo-Pro uptake; read-out: IC50 (antagonistic activity for the human P2X7 receptor), class symbol
Method: Stably expressing cell line (1321N1 cell transfected with the human P2X7 receptor gene (GenBank accession number NM_002562.5 including T606C and G952A SNP)) was used. […] Measurement of fluorescence intensity by FLIPR TETRA was started. […] Changing values of fluorescence intensity by the compound of the present invention were calculated by difference between maximum and minimum fluorescence intensity for 20 minutes. Inhibition ratios (%) were calculated from the following equation: […]
Below, each entry is listed alongside its reported IC50.

Below, each entry is followed by its recorded IC50 result.
Query string: Give the measured IC50 of COc1cn(Cc2ccccc2)c(Nc2cc(Cl)c(Cl)cc2C)nc1=O [Compound I-0464] .
Result string: < 10 nM

Query string: Input CCc1cc(OC)c(OC)cc1Nc1nc(=O)c(F)cn1Cc1cccc(Cl)c1 [Compound I-0350]
Result string: < 10 nM

Query string: Input COc1cn(Cc2ccc(F)c(F)c2)c(Nc2ccc(N3CCOCC3)cc2C)nc1=O [Compound I-0519]
Result string: 10 to 100 nM

Query string: Input CCc1ccccc1Nc1nc(=O)c(OC)cn1Cc1ccc(F)c(Cl)c1 [Compound I-0252]
Result string: < 10 nM

Query string: Input COc1cn(Cc2cccc(F)c2)c(Nc2cc(C)c(OC(F)F)cc2C)nc1=O [Compound I-0300]
Result string: < 10 nM

Continuing:
Query string: Give the measured IC50 of COc1cn(Cc2ccc(F)c(Cl)c2)c(Nc2cc(N3CCN(C(=O)OC(C)(C)C)CC3)ccc2C)nc1=O [Compound I-0412] .
Result string: 100 to 500 nM

Query string: Input COc1cn(Cc2ccc(F)c(Cl)c2)c(Nc2cccc(C)c2Cl)nc1=O [Compound I-0483]
Result string: < 10 nM

Query string: Input COc1cn(Cc2ccccc2COC(F)F)c(Nc2cccc(Cl)c2C)nc1=O [Compound I-0447]
Result string: < 10 nM
